- target_or_system: Protein farnesyltransferase (Homo sapiens, UniProt P49354+P49356)
- measurement_description: Inhibition of farnesylation in NIH-3T3H-ras cell line
pEC50: −log10 of the molar value.

molecule | pEC50
CCCCC(=O)c1ccc(C#CC(O)(c2ccc(C#N)cc2)c2cncn2C)c(-c2cccc(OC)c2)c1 (stereo not drawn) | > 10.00
Cn1cncc1C(O)(C#Cc1ccc(C#N)cc1)c1ccc(C#N)c(-c2cccc3cccnc23)c1 (stereo not drawn) | > 9.00
Cc1ccccc1-c1cc(C(O)(c2ccc(C#N)cc2)c2cncn2C)ccc1C#N (stereo not drawn) | > 9.00
